Data provenance is the RNAGym collection of RNA variant scans (doi:10.7554/elife.80360).

B1: HDV Ribozyme (parent)
chain: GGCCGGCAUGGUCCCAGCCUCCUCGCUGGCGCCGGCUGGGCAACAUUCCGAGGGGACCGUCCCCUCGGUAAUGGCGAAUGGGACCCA

Variants of: B1
Test: self-cleavage, relative activity (ratio to wild type); higher = more cleavage; co-transcriptional
assayReadout: self-cleavage

[[record]]
variantidentifier = "G68U C86U"
assayreadout = "self-cleavage"
valueobserved = 1.05

[[record]]
variantidentifier = "C49A C86U"
assayreadout = "self-cleavage"
valueobserved = 0.795

[[record]]
variantidentifier = "C48G C66G"
assayreadout = "self-cleavage"
valueobserved = 0.906

[[record]]
variantidentifier = "U12A A87C"
assayreadout = "self-cleavage"
valueobserved = 0.251

[[record]]
variantidentifier = "G54A C62G"
assayreadout = "self-cleavage"
valueobserved = 1.06

[[record]]
variantidentifier = "G31A G76U"
assayreadout = "self-cleavage"
valueobserved = 0.749

[[record]]
variantidentifier = "C7G G67A"
assayreadout = "self-cleavage"
valueobserved = 0.128

[[record]]
variantidentifier = "C41G C86A"
assayreadout = "self-cleavage"
valueobserved = 1.14

[[record]]
variantidentifier = "U9G G28A"
assayreadout = "self-cleavage"
valueobserved = 0.0573

[[record]]
variantidentifier = "G6A G50A"
assayreadout = "self-cleavage"
valueobserved = 0.785

[[record]]
variantidentifier = "G52C C57A"
assayreadout = "self-cleavage"
valueobserved = 0.817

[[record]]
variantidentifier = "C3A A70U"
assayreadout = "self-cleavage"
valueobserved = 0.437

